The values you see were collected from ChEMBL document CHEMBL1649108.

Experiment: Volume of distribution at steady state in Beagle dog at 1 mg/kg, iv or 1 mg/kg, po
Type: ADME, organism-based, Canis lupus familiaris
Conditions: in vivo, read-out: Vdss
measurement_type: Vd (L/kg)
Record the value in L/kg, omitting the unit from your answer.

Please fill in: Vd reported for `O=C(O)C1CN(Cc2ccc(-c3nc4ccc(C5(c6ccccc6)CC5)nc4s3)c(F)c2)C1` = 1.2

---

Target: Sphingosine 1-phosphate receptor 3 (Homo sapiens, UniProt Q99500)
Sequence (Q99500 whole entry): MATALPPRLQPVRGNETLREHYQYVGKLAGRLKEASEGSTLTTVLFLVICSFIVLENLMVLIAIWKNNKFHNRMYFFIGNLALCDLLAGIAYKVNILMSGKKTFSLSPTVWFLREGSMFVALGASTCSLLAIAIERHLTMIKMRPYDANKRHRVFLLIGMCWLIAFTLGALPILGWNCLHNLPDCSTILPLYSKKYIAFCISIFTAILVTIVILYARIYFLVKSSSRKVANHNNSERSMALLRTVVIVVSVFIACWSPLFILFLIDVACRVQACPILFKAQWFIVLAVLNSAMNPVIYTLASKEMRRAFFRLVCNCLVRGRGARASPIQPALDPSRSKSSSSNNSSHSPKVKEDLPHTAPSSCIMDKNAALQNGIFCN
Test: Agonist activity at human S1P3R expressed in CHO cells by Ca(2+) mobilization assay relative to S1P
Type: functional, cell-based
Parameters: concentration or dose not given beside the values
measurement_type: Activity (%)
Reply with just the number (in %).

Recorded Activity, per entry:
compound_string=C[C@@H](c1ccccc1)c1ccc2nc(-c3ccc(CN4CC(C(=O)O)C4)cc3F)sc2n1 tested_target="Sphingosine 1-phosphate receptor 3 (Homo sapiens, UniProt Q99500)" readout_units=% meas_value=44
compound_string=O=C(O)C1CN(Cc2ccc(-c3nc4ccc(C5(c6ccccc6)CCCCC5)nc4s3)c(F)c2)C1 tested_target="Sphingosine 1-phosphate receptor 3 (Homo sapiens, UniProt Q99500)" readout_units=% meas_value=41
compound_string=O=C(O)C1CN(Cc2ccc(-c3nc4ccc(C5(c6ccccc6)CC5)nc4s3)c(F)c2)C1 tested_target="Sphingosine 1-phosphate receptor 3 (Homo sapiens, UniProt Q99500)" readout_units=% meas_value=26
compound_string=O=C(O)C1CN(Cc2ccc(-c3nc4cnc(Cc5ccccc5)cc4s3)c(F)c2)C1 tested_target="Sphingosine 1-phosphate receptor 3 (Homo sapiens, UniProt Q99500)" readout_units=% meas_value=64
compound_string=O=C(O)C1CN(Cc2ccc(-c3nc4ccc(C5(c6ccccc6)CC5)cc4s3)c(F)c2)C1 tested_target="Sphingosine 1-phosphate receptor 3 (Homo sapiens, UniProt Q99500)" readout_units=% meas_value=56
compound_string=O=C(O)C1CN(Cc2ccc(-c3nc4ccc(Cc5ccccc5)nc4s3)c(F)c2)C1 tested_target="Sphingosine 1-phosphate receptor 3 (Homo sapiens, UniProt Q99500)" readout_units=% meas_value=94
compound_string=O=C(O)C1CN(Cc2ccc(-c3nc4cc(Cc5ccccc5)cnc4s3)c(F)c2)C1 tested_target="Sphingosine 1-phosphate receptor 3 (Homo sapiens, UniProt Q99500)" readout_units=% meas_value=36
compound_string=O=C(O)C1CN(Cc2ccc(-c3nc4nc(Cc5ccccc5)ccc4s3)c(F)c2)C1 tested_target="Sphingosine 1-phosphate receptor 3 (Homo sapiens, UniProt Q99500)" readout_units=% meas_value=63
compound_string=C[C@H](c1ccccc1)c1ccc2nc(-c3ccc(CN4CC(C(=O)O)C4)cc3F)sc2n1 tested_target="Sphingosine 1-phosphate receptor 3 (Homo sapiens, UniProt Q99500)" readout_units=% meas_value=45
compound_string=O=C(O)C1CN(Cc2ccc(-c3nc4cc(Cc5ccccc5)ccc4s3)c(F)c2)C1 tested_target="Sphingosine 1-phosphate receptor 3 (Homo sapiens, UniProt Q99500)" readout_units=% meas_value=24

# Activity of `CC(C)(c1ccccc1)c1ccc2nc(-c3ccc(CN4CC(C(=O)O)C4)cc3F)sc2n1` = 64

# Activity of `O=C(O)C1CN(Cc2ccc(-c3nc4ccc(C5(c6ccccc6)CCC5)nc4s3)c(F)c2)C1` = 68

get_value(item= `O=C(O)C1CN(Cc2ccc(-c3nc4ccc(Cc5ccccc5)cc4s3)c(F)c2)C1` , readout=Activity) returns 50
